System: SW 1271 complex tumor spheroid viability
Assay: Anticancer human tumor SW 1271 cell line growth inhibition; active = viability on the fitted dose curve at most 10% of control; inactive = the rest;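 also: spheroids exposed to agents for seven days before readout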
Measurement Parameters: second compound 30 pM; first compound 0.3 µM
Please answer using one outcome listed in active, inactive

Examples from the recorded data:
Compound | Assigned Class
CNCc1ccc(-c2cc(-c3nc(-c4ccc(S(=O)(=O)C(C)C)cc4)cnc3N)on2)cc1 + COc1cc2c(cc1O)CCNC21CSC2c3c(OC(C)=O)c(C)c4c(c3C(COC1=O)N1C(O)C3Cc5cc(C)c(OC)c(O)c5C(C21)N3C)OCO4 | inactive
Cc1sc2c(c1C)C(c1ccc(Cl)cc1)=NC(CC(=O)Nc1ccc(O)cc1)c1nnc(C)n1-2 (centres undefined) + COc1cc2c(cc1O)CCNC21CSC2c3c(OC(C)=O)c(C)c4c(c3C(COC1=O)N1C(O)C3Cc5cc(C)c(OC)c(O)c5C(C21)N3C)OCO4 | active
O=C(c1cc(Cc2n[nH]c(=O)c3ccccc23)ccc1F)N1CCN(C(=O)C2CC2)CC1 + COc1cc2c(cc1O)CCNC21CSC2c3c(OC(C)=O)c(C)c4c(c3C(COC1=O)N1C(O)C3Cc5cc(C)c(OC)c(O)c5C(C21)N3C)OCO4 | inactive

Could you now look at the following compound, please?
Q: Call for entry Cn1ncnc1[C@H]1c2n[nH]c(=O)c3cc(F)cc(c23)N[C@@H]1c1ccc(F)cc1 + COc1cc2c(cc1O)CCNC21CSC2c3c(OC(C)=O)c(C)c4c(c3C(COC1=O)N1C(O)C3Cc5cc(C)c(OC)c(O)c5C(C21)N3C)OCO4 :
Ans: inactive
